# maps each entry to its growth
System: SK-MEL-28 melanoma
Assay: NCI-60 one-dose screen, 48 h (100 = growth as untreated, 0 = no growth, -100 = all killed)
Conditions: 10 µM unless noted
This is part of a sample that, as a whole, favours compounds with a hit. Of some 83,000 tested, about 20% had one in any assay. Active and inactive are the calls of the source. Rule for the calls: active = growth percent below 10; inactive = the rest.

MOLECULE	growth
C=C1c2c(C)nn(-c3ccc(C#CCOC4OC(CO)C(O)C(O)C4O)cc3)c2N(C)C23C[C@H]1C1(C)c4c(C)nn(-c5ccc(C#CCOC6OC(CO)C(O)C(O)C6O)cc5)c4N(C)C(C)(C[C@H]12)C3 (some centres undefined)	5.91% (active)
CC(c1cc(Cl)ccc1O)c1cc(Cl)ccc1O	33.5% (inactive)
CN1CCN(CC(=O)Nc2nc3c(s2)Nc2cc(Cl)c(Cl)cc2NC3=O)CC1	111% (inactive)
Cc1c(C(N)=O)sc2ncn(Cc3ccccc3)c(=O)c12	112% (inactive)
O=C(Nc1ccccc1Cl)c1cnc2ccc(C3CCNCC3)cn12	102% (inactive)
Nc1nc(SCc2ccccc2Cl)c(-c2ccccc2)c(SCc2ccccc2Cl)n1	101% (inactive)
NC(=O)c1ncn([C@@H]2O[C@H](CO)[C@@H](O)[C@H]2O)n1	115% (inactive)
Cc1cc(Cl)ccc1Nc1nc(C(F)(F)F)ccc1C(=O)NCC(=O)N/N=C/c1c(Cl)cccc1Cl	85.7% (inactive)
O=C1c2nsnc2C(=O)c2c(F)c(F)c(F)c(F)c21	-92.5% (active)

---

System: RXF 393 renal
Assay: NCI-60 one-dose screen, 48 h
Details: 10 µM unless noted
About 83,000 compounds went through this panel and 20% of them were active in at least one assay; those are over-represented in the sample as a whole. Activity calls are given as the source filed them. Rule for the calls: active = growth percent below 10; inactive = the rest.
Possible outcomes: active, inactive

MOLECULE	GROUP
CCn1c2c(c3ccccc31)SC1c3cccn3CCN1C2=S (configuration not stated)	inactive
O=C1C2C3C=CC(O3)C2C(=O)N1Nc1ccccc1 (configuration not stated)	inactive
c1ccc2cc(C[n+]3ccn(CCCCCCCn4cc[n+](Cc5ccc6ccccc6c5)c4)c3)ccc2c1	inactive
O=C(/C=C/c1cccnc1)/C=C/c1cccnc1	active
COc1ccc(Cn2cc3c(c2-c2ccccc2)CCc2cncnc2-3)cc1	inactive
Cc1cc(C(C)(C)C)cc(C)c1CC1=NCCN1	inactive
COc1cc(C2C=C(c3ccc(C)cc3)Nc3nc(SC)[nH]c(=O)c32)ccc1Oc1ccnc2cc(Cl)ccc12 (configuration not stated)	inactive
COc1ccc2[nH]cc(/C=C3/C(=O)Nc4ccc(F)cc43)c2c1	inactive
O=c1ccn(C2OC(CO)C(O)C2F)c(=O)[nH]1 (configuration not stated)	inactive
COc1cc(C2CC(=O)Nc3c2cc(Br)c2ccccc32)cc(Br)c1OC (configuration not stated)	inactive
Cn1c(=O)c2nc(SCc3ccccc3)n(C)c2n(C)c1=O	inactive
CCCc1cc(=O)n2c(C(=O)Nc3ccccc3OC)c(C(=O)Nc3ccc(F)cc3)sc2n1	active
COC(=O)CCC1=C(C)C(C)=N/C1=C\c1[nH]c(-c2ccc[nH]2)cc1OC	inactive
CC[C@]1(O)CC2CN(CCc3c([nH]c4ccccc34)[C@@](C(=O)OC)(c3cc4c(cc3OC)N(C)[C@H]3[C@@](O)(C(=O)OC)[C@H](OC(C)=O)[C@]5(CC)C=CCN6CC[C@]43[C@@H]65)C2)C1 (some centres not stated)	inactive
CC(c1ccccn1)C(C)(O)C(C)c1ccccn1 (configuration not stated)	inactive
O=C(OCCBr)c1ccc(Cl)c([N+](=O)[O-])c1	inactive
CSc1ccc2c(c1)N(CCC1CCCCN1C)c1ccccc1S2 (configuration not stated)	inactive
O=C1/C(=C/c2ccc([N+](=O)[O-])s2)Oc2ccc(Br)cc21	active
COc1cc(C2NC(c3ccc(Cl)cc3)C(C)C(=NC(=O)c3cnccn3)C2C)cc(OC)c1OC (configuration not stated)	inactive
Cc1cc(Cl)ccc1Nc1nc(C(F)(F)F)ccc1C(=O)NCC(=O)N/N=C/c1c(Cl)cccc1Cl	inactive
O=C(/C=C/c1ccc(O)c(O)c1)N1CCN(c2ccc(Cl)cc2)CC1	inactive
CN1COc2ccc3ccccc3c2C1	inactive
COc1ccc(-c2nn(-c3ccccc3)cc2/C=C2\SC(=S)N(CCc3ccc(O)cc3)C2=O)cc1	inactive
COc1ccc(C2CC(c3ccc(OC)c(OC)c3)=NN2C(=O)c2cc(OC)c(OC)c(OC)c2)cc1 (configuration not stated)	active
COc1ccc(-c2cc(Cc3cccs3)c(=O)n(Cn3cncn3)n2)cc1	inactive
Cn1cc(-c2nc(-c3c[nH]c4ncccc34)cs2)c2cccnc21	inactive
CCOC(=O)C(Cc1ccccc1)(C(=O)OCC)C(Br)C(=O)c1ccccc1 (configuration not stated)	inactive
CCC(O)C(C)(C)C (configuration not stated)	inactive
O=C(NN(C(=O)c1ccccc1)c1cccs1)c1ccccc1	inactive
CCCCCCCCCCSc1ncnc2nc[nH]c12	inactive
COc1ccc2c(c1)[nH]c(=O)c1c3cc(OC)c(OC)cc3cn21	active
C=C(C[C@@](O)(C(=O)Oc1ccccc1)C(=O)C1CCCCC1)c1ccccc1	inactive
CC(C)(C)c1cc(O)c(O)c(C(C)(C)C)c1	inactive
O=C(Nc1cccc([N+](=O)[O-])c1)c1cccc(C(=O)Nc2cccc([N+](=O)[O-])c2)c1	inactive
O=C(Nc1ccc(Cl)cc1)Nc1ccc(Nc2nncc3ccccc23)cc1	inactive
COc1ccc(C(=O)Nc2nc(-c3ccc(Cl)cc3)cs2)cc1	inactive
Clc1ccc(-c2nc(-c3cccs3)no2)c(Cl)c1	inactive
O=C(Nc1ccc(Nc2ccncc2)cc1)c1ccc(Nc2ccnc3ccc([N+](=O)[O-])cc23)cc1[N+](=O)[O-]	inactive
O=C(/C=C/c1cc2ccccc2[nH]c1=O)c1ccc(O)cc1	active
C[n+]1c2ccccc2c(NC2CCNCC2)c2[nH]c3ccccc3c21	active
CCOC(=O)/C=C(/C)Sc1cc(O)c2ccccc2c1O	inactive
Cc1nn(-c2ccccc2)c2nc(Cl)c(/C=C/C(=O)c3ccccc3)c(-c3ccccc3)c12	inactive
